tested on: MDA-MB-468 breast; assay: NCI-60 one-dose screen, 48 h; conditions: 10 µM unless noted
About 83,000 compounds went through this panel and 20% of them were active in at least one assay; those are over-represented in the sample as a whole. Activity calls are given as the source filed them. How the source made its calls: active means growth percent below 10; inactive means the rest.
Respond with a class label; see class 1 for active, class 0 for inactive

Take a look at these entries with their results.
{"Compound": "CCn1cc(C(=O)N/N=C/c2cccs2)c(=O)c2cc(F)c(N3CCNC(C)C3)c(F)c21 (stereo not given)", "Assayed System": "MDA-MB-468 breast", "Category Label": "class 0"}
{"Compound": "CCCCCCN=C(N)CCCCCCCCCCC(N)=NCCCCCC", "Assayed System": "MDA-MB-468 breast", "Category Label": "class 1"}
{"Compound": "CCN(CC)CCNc1ccc(CO)c2sc3ccccc3c(=O)c12", "Assayed System": "MDA-MB-468 breast", "Category Label": "class 1"}
{"Compound": "Nc1ncnc2c1c(-c1ccc(Oc3ccccc3)cc1)nn2C[C@@H]1SSC[C@@H]1O", "Assayed System": "MDA-MB-468 breast", "Category Label": "class 1"}
{"Compound": "Cc1[nH]c(-c2nc3ccccc3[nH]2)c(C)c1C(=O)N1CCc2sccc2C1", "Assayed System": "MDA-MB-468 breast", "Category Label": "class 0"}

[ask] Assay outcome for `COc1cccc(-c2nn(-c3ccccc3)cc2-c2ccnc(NCCCNC(=O)c3ccccc3)c2)c1` : what was it?
[reply] class 0

[ask] Which result was noted for this compound in the test: `O=C(Nc1ccc(Br)cc1F)c1cc(Br)ccc1O`
[reply] class 1

* * *

test system: MDA-MB-468 breast; test: NCI-60 one-dose screen, 48 h (100 = growth as untreated, 0 = no growth, -100 = all killed); settings: 10 µM unless noted
About 83,000 compounds went through this panel and 20% of them were active in at least one assay; those are over-represented in the sample as a whole.
Result Type: growth (%)
Provide the reading as a plain figure in %.

{"Compound": "CC(=O)c1cc2c(N)c(C(=O)Nc3ccccn3)sc2nc1C", "Assayed System": "MDA-MB-468 breast", "Result Type": "growth", "Recorded Measurement": 57.3}
{"Compound": "O=C(/C=C/c1ccc2ccccc2c1)Nc1ncc(Cc2ccccc2)s1", "Assayed System": "MDA-MB-468 breast", "Result Type": "growth", "Recorded Measurement": 64}
{"Compound": "CCCCN(CCCC)CCc1c(C)cc(C)c(CCN(CCCC)CCCC)c1O", "Assayed System": "MDA-MB-468 breast", "Result Type": "growth", "Recorded Measurement": 0.281}

Record summary for `COC(=O)c1cc2c(=O)[nH]cc3c2c(n1)CCC3` : reported growth = 97.7

Record `O=C(CNC(=O)OCc1ccccc1)NCC(=O)Oc1ccc([N+](=O)[O-])cc1` , field growth: 106

Item: `O=C1c2c(c3c4ccccc4[nH]c3c3ccc4ccccc4c23)C(=O)N1CCN1CCCCC1` | growth: -0.798

The compound `N#Cc1nc(C#N)c(Sc2ccccc2)c(Sc2ccccc2)c1Sc1ccccc1` showed growth equal to -73.9

response.value for CCCCN(CCCC)CCCCCCCCC(O)c1cc2ccccc2c2ccccc12 (stereo not given) (field: growth) = 29.1

Query `CC1=CC(=O)N(c2cccc3c(N4C(=O)C=C(C)C4=O)cccc23)C1=O` yields growth of 23.6

Entry `COc1cc2ncnc(-n3ncc4cc(NC(=O)Nc5ccc(Cl)c(Cl)c5)ccc43)c2cc1OC` ; growth = -70.5
